Attribute: viability, T/C
# Test system: MPNST multicellular tumor spheroids, viability % test/control
# ASSAY_INFO: Anticancer human tumor MPNST cell line growth inhibition;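 further: luminescence signal used as surrogate for viable cell amount; spheroids exposed to agents for seven days after three days of growth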
# MEASUREMENT_CONTEXT: second compound 100 µM; first compound 0.1 µM; stronger effect = lower value
EXPERIMENTAL_READOUT: viability, T/C (%)

> print(dat)
                                   compound  experimental.value
1  Cc1cc(C)c(CNC(=O)c2cc(-c3ccc(CN4CCOCC4)cc3)cc3c2cnn3C2CCCC2)c(=O)[nH]1 + Cn1nnc2c(C(N)=O)ncn2c1=O                97.5
2  [2H]c1nc(C)nc([2H])c1-c1cc(NC[C@@H](C)c2cccc3c(C(=O)NC)ccnc23)ncn1 + Cn1nnc2c(C(N)=O)ncn2c1=O                 111
3  CC(C)n1c(=O)n(C)c2cnc3cc(F)c(-c4ccc(OCCCN5CCCCC5)nc4)cc3c21 + Cn1nnc2c(C(N)=O)ncn2c1=O                71.8
4  CC1COCCN1c1cc(-c2ccnn2C)c2ccnc(-c3ccn[nH]3)c2n1 (stereo unspecified) + Cn1nnc2c(C(N)=O)ncn2c1=O                54.4
5  COc1ccc([C@@H](O)c2cc(-c3ncnc4cc(N5CCOCC5)ccc34)c(F)cc2Cl)nn1 + Cn1nnc2c(C(N)=O)ncn2c1=O                90.8
6  COc1cc(C)[nH]c(=O)c1CN1CCc2c(Cl)cc(C(OC)C3COC3)c(Cl)c2C1=O (stereo unspecified) + Cn1nnc2c(C(N)=O)ncn2c1=O                82.7
